- Tested on: HSkMC
- TEST DETAILS: cytotoxicity call (relative viability < 0.9)
- COND: 10 µM
Out of some 39,000 compounds screened, about 1,500 (3.8%) were called active. This excerpt belongs to a sample that is enriched for actives.
Possible outcomes: YES = active, NO = inactive

In [3]: df
Out[3]:
                             compound_string  cat
 0  C[C@H](CO)N1C[C@H](C)[C@@H](CN(C)Cc2ccc(C(F)(F)F)cc2)OCCCC[C@H](C)Oc2ccc(NS(=O)(=O)c3ccc(Cl)cc3)cc2C1=O  YES
 1  C=CCC[C@H](Cc1ccc(F)cc1)C(=O)O[C@H](CNC(=O)[C@H](CC=C)CC(=O)N(CCO)Cc1ccccc1)c1ccccc1   NO
 2  C=CCC[C@H](Cc1ccc(F)cc1)C(=O)O[C@H](CNC(=O)[C@@H](CC=C)CC(=O)N(CCO)Cc1ccccc1)c1ccccc1   NO
 3  C=CCC[C@@H](Cc1ccc(F)cc1)C(=O)O[C@H](CNC(=O)[C@H](CC=C)CC(=O)N(CCO)Cc1ccccc1)c1ccccc1   NO
 4  C[C@@H]1CCCCO[C@@H](CN(C)Cc2ccc(C(F)(F)F)cc2)[C@@H](C)CN([C@@H](C)CO)C(=O)c2cc(NS(=O)(=O)c3ccc(Cl)cc3)ccc2O1   NO
 5  C[C@@H]1CCCCO[C@H](CN(C)Cc2ccc(C(F)(F)F)cc2)[C@H](C)CN([C@@H](C)CO)C(=O)c2cc(NS(=O)(=O)c3ccc(Cl)cc3)ccc2O1  YES
 6  Cc1ccc(S(=O)(=O)Nc2ccc3c(c2)C(=O)N([C@@H](C)CO)C[C@H](C)[C@H](CN(C)S(=O)(=O)c2cn(C)cn2)O3)cc1   NO
 7  C=CCC[C@H](Cc1ccc(F)cc1)C(=O)O[C@@H](CNC(=O)[C@H](CC=C)CC(=O)N(CCO)Cc1ccccc1)c1ccccc1   NO
 8  Cc1nn(C)c(Cl)c1S(=O)(=O)NC(=O)[C@@]1(C)CCN1C(=O)c1ccccc1CCc1ccccc1   NO
 9  C[C@@H]1CCCCO[C@H](CN(C)Cc2ccc(C(F)(F)F)cc2)[C@@H](C)CN([C@@H](C)CO)C(=O)c2cc(NS(=O)(=O)c3ccc(Cl)cc3)ccc2O1  YES
10  C=CCC[C@@H](Cc1ccc(F)cc1)C(=O)O[C@@H](CNC(=O)[C@@H](CC=C)CC(=O)N(CCO)Cc1ccccc1)c1ccccc1  YES
11  C[C@H](CO)N1C[C@H](C)[C@H](CN(C)S(=O)(=O)c2cccc(F)c2)Oc2cc(Br)ccc2S1(=O)=O   NO
12  C[C@@H]1CN([C@H](C)CO)C(=O)c2cc(NS(=O)(=O)c3ccc(Cl)cc3)ccc2O[C@@H](C)CCCCO[C@H]1CN(C)Cc1ccc(C(F)(F)F)cc1  YES

----------
- System: HSkMC (human skeletal muscle cells)
- TEST DETAILS: cytotoxicity call (relative viability < 0.9)
- COND: 10 µM
The campaign covered roughly 39,000 compounds. About 1,500 (3.8%) were called active. The entries come from a sample that favours actives as a whole.
RESULT TYPE: cytotoxicity call

>>> df
                            compound_string  value_reported
0  COc1ccc(NC(=O)Nc2ccc3c(c2)C(=O)N([C@H](C)CO)C[C@@H](C)[C@@H](CN(C)Cc2ccc(C(F)(F)F)cc2)OCCCC[C@@H](C)O3)cc1          active
1  COc1ccc(CN(C)C[C@@H]2OCCCC[C@@H](C)Oc3ccc(NC(=O)Nc4ccc(C(F)(F)F)cc4)cc3C(=O)N([C@H](C)CO)C[C@@H]2C)cc1          active
2  COc1ccc(S(=O)(=O)N(C)C[C@@H]2OCCCC[C@H](C)Oc3ccc(NS(=O)(=O)c4ccc(Cl)cc4)cc3C(=O)N([C@H](C)CO)C[C@@H]2C)cc1        inactive
3  COc1ccc(NC(=O)Nc2ccc3c(c2)C(=O)N([C@H](C)CO)C[C@@H](C)[C@H](CN(C)Cc2ccc(C(F)(F)F)cc2)OCCCC[C@H](C)O3)cc1        inactive
4  COc1ccc(NC(=O)Nc2ccc3c(c2)C(=O)N([C@H](C)CO)C[C@H](C)[C@@H](CN(C)Cc2ccc(C(F)(F)F)cc2)OCCCC[C@@H](C)O3)cc1        inactive
5  Cc1ccc(S(=O)(=O)N(C)C[C@@H]2OCCCC[C@H](C)Oc3ccc(NS(=O)(=O)c4ccc(Cl)cc4)cc3C(=O)N([C@@H](C)CO)C[C@H]2C)cc1        inactive
